The measurements presented in this section are drawn from ChEMBL document CHEMBL3596140.

- System: A549
- TEST_METHOD_NOTES: Cytostatic activity against human A549 cells by MTT assay
- Assay type: functional, cell-based
MEASURED_ATTRIBUTE: IC50

SMILES_RECORD | MEASURED_ATTRIBUTE | REPORTED_MEASUREMENT
CC[C@@]12CCCN3CCc4c(n(c5ccccc45)[C@H](c4ccc(O)c5c4N[C@@H]4CC[C@@]6(CC)CCCN7CC[C@@]54[C@H]76)C1)[C@H]32 | IC50 | 8 µM
